tested on: Staphylococcus aureus; assay: Bactericidal activity against Staphylococcus aureus MTCC 96 after 24 hrs; type: functional; conditions: MTCC 96, 24 h
So basically: is MBC under 100 µg/mL? Then Yes. Not under? Then No.

Task: Determine if N#CC1=C(N)OC2=C(C(=O)CCC2)C12C(=O)N(Cc1cn(-c3ccc([N+](=O)[O-])cc3)nn1)c1ccccc12 (centres undefined) shows MBC strictly lower than 100 µg/mL.
Result: No

Task: Determine if Cn1c2c(c(=O)n(C)c1=O)C1(C(=O)N(Cc3cn(-c4ccc([N+](=O)[O-])cc4)nn3)c3ccccc31)C(C#N)=C(N)O2 (centres undefined) shows MBC strictly lower than 100 µg/mL.
Result: No

Task: Determine if CC1(C)CC(=O)C2=C(C1)OC(N)=C(C#N)C21C(=O)N(Cc2cn(-c3ccccc3)nn2)c2ccccc21 (centres undefined) shows MBC strictly lower than 100 µg/mL.
Result: No

Task: Determine if CC1(C)CC(=O)C2=C(C1)OC(N)=C(C#N)C21C(=O)N(Cc2cn(-c3ccc(F)c(Cl)c3)nn2)c2ccccc21 (centres undefined) shows MBC strictly lower than 100 µg/mL.
Result: No

Task: Determine if O=C(O)c1cn(C2CC2)c2cc(N3CCNCC3)c(F)cc2c1=O shows MBC strictly lower than 100 µg/mL.
Result: Yes

***
Task: Determine if N#CC1=C(N)OC2=C(C(=O)CCC2)C12C(=O)N(Cc1cn(-c3ccc(Br)cc3)nn1)c1ccccc12 (centres undefined) shows MBC strictly lower than 100 µg/mL.
Result: Yes

Task: Determine if COc1ccc(-n2cc(CN3C(=O)C4(C(C#N)=C(N)OC5=C4C(=O)CCC5)c4ccccc43)nn2)cc1 (centres undefined) shows MBC strictly lower than 100 µg/mL.
Result: No

Task: Determine if CC1(C)CC(=O)C2=C(C1)OC(N)=C(C#N)C21C(=O)N(Cc2cn(-c3ccc(Br)cc3)nn2)c2ccccc21 (centres undefined) shows MBC strictly lower than 100 µg/mL.
Result: No

Task: Determine if CC1(C)CC(=O)C2=C(C1)OC(N)=C(C#N)C21C(=O)N(Cc2cn(-c3cccc(Cl)c3)nn2)c2ccccc21 (centres undefined) shows MBC strictly lower than 100 µg/mL.
Result: No

====

tested on: Saccharomyces cerevisiae; test: Antifungal activity against Saccharomyces cerevisiae MTCC 170 assessed as growth inhibition at 4 mg/mL after 24 hrs by agar well diffusion method; format: functional; details: MTCC 170, 24 h, read-out: DIZ
Each record here notes measured zone of inhibition at 4000 µg/mL.
The answer is to be given in mm; state only the numeric part.

Answered cases to consult:
Recorded zone of inhibition at 4000 µg/mL (molecule CC1(C)CC(=O)C2=C(C1)OC(N)=C(C#N)C21C(=O)N(Cc2cn(-c3ccc(Br)cc3)nn2)c2ccccc21 (stereo unspecified) ): 14.6

Recorded zone of inhibition at 4000 µg/mL (molecule COc1ccc(-n2cc(CN3C(=O)C4(C(C#N)=C(N)Oc5c4c(=O)n(C)c(=O)n5C)c4ccccc43)nn2)cc1 (stereo unspecified) ): 17.6

***
Recorded zone of inhibition at 4000 µg/mL (molecule COc1ccc(-n2cc(CN3C(=O)C4(C(C#N)=C(N)OC5=C4C(=O)CC(C)(C)C5)c4ccccc43)nn2)cc1 (stereo unspecified) ): 15.6

Recorded zone of inhibition at 4000 µg/mL (molecule N#CC1=C(N)OC2=C(C(=O)CCC2)C12C(=O)N(Cc1cn(-c3ccc([N+](=O)[O-])cc3)nn1)c1ccccc12 (stereo unspecified) ): 13.6

Recorded zone of inhibition at 4000 µg/mL (molecule Cn1c2c(c(=O)n(C)c1=O)C1(C(=O)N(Cc3cn(-c4ccc(Br)cc4)nn3)c3ccccc31)C(C#N)=C(N)O2 (stereo unspecified) ): 15.3

Recorded zone of inhibition at 4000 µg/mL (molecule CC1(C)CC(=O)C2=C(C1)OC(N)=C(C#N)C21C(=O)N(Cc2cn(-c3ccc([N+](=O)[O-])cc3)nn2)c2ccccc21 (stereo unspecified) ): 15.3

Recorded zone of inhibition at 4000 µg/mL (molecule Cc1ccc(-n2cc(CN3C(=O)C4(C(C#N)=C(N)OC5=C4C(=O)CC(C)(C)C5)c4ccccc43)nn2)cc1 (stereo unspecified) ): 14

Recorded zone of inhibition at 4000 µg/mL (molecule COc1ccc(-n2cc(CN3C(=O)C4(C(C#N)=C(N)OC5=C4C(=O)CCC5)c4ccccc43)nn2)cc1 (stereo unspecified) ): 16.3

Recorded zone of inhibition at 4000 µg/mL (molecule C[C@@H]1[C@H](O)[C@@H](C)/C=C/C=C/C=C/C=C/C=C/C=C/C=C/[C@H](O[C@@H]2O[C@H](C)[C@@H](O)[C@H](N)[C@@H]2O)C[C@@H]2O[C@](O)(C[C@@H](O)C[C@@H](O)[C@H](O)CC[C@@H](O)C[C@@H](O)CC(=O)O[C@H]1C)C[C@H](O)[C@H]2C(=O)O [AMPHOTERICIN B] ): 18.3

Recorded zone of inhibition at 4000 µg/mL (molecule Cc1ccc(-n2cc(CN3C(=O)C4(C(C#N)=C(N)OC5=C4C(=O)CCC5)c4ccccc43)nn2)cc1 (stereo unspecified) ): 15.6

====

tested on: Bacillus subtilis; assay: Bactericidal activity against Bacillus subtilis MTCC 121 after 24 hrs; format: functional; settings: MTCC 121, 24 h
Each record here notes measured MBC.
The answer is to be given in µg/mL; state only the numeric part.

Recorded MBC for N#CC1=C(N)OC2=C(C(=O)CCC2)C12C(=O)N(Cc1cn(-c3ccc([N+](=O)[O-])cc3)nn1)c1ccccc12 (centres undefined) on Bacillus subtilis was 256

Recorded MBC for Cn1c2c(c(=O)n(C)c1=O)C1(C(=O)N(Cc3cn(-c4ccc(Br)cc4)nn3)c3ccccc31)C(C#N)=C(N)O2 (centres undefined) on Bacillus subtilis was 64

Recorded MBC for N#CC1=C(N)OC2=C(C(=O)CCC2)C12C(=O)N(Cc1cn(-c3ccc(Br)cc3)nn1)c1ccccc12 (centres undefined) on Bacillus subtilis was 128

Recorded MBC for COc1ccc(-n2cc(CN3C(=O)C4(C(C#N)=C(N)Oc5c4c(=O)n(C)c(=O)n5C)c4ccccc43)nn2)cc1 (centres undefined) on Bacillus subtilis was 256

====

system: Staphylococcus aureus; assay: Antibacterial activity against Staphylococcus aureus MTCC 96 assessed as growth inhibition at 4 mg/mL after 24 hrs by agar well diffusion method; format: functional; details: MTCC 96, 24 h, read-out: DIZ
Test Readout: zone of inhibition at 4000 µg/mL (mm)
The answer is to be given in mm; state only the numeric part.

Answered cases to consult:
Recorded zone of inhibition at 4000 µg/mL (compound CC1(C)CC(=O)C2=C(C1)OC(N)=C(C#N)C21C(=O)N(Cc2cn(-c3ccccc3)nn2)c2ccccc21 (configuration not stated) ): 14.6

Recorded zone of inhibition at 4000 µg/mL (compound N#CC1=C(N)OC2=C(C(=O)CCC2)C12C(=O)N(Cc1cn(-c3ccc([N+](=O)[O-])cc3)nn1)c1ccccc12 (configuration not stated) ): 17.6

Recorded zone of inhibition at 4000 µg/mL (compound Cn1c2c(c(=O)n(C)c1=O)C1(C(=O)N(Cc3cn(-c4ccc(Br)cc4)nn3)c3ccccc31)C(C#N)=C(N)O2 (configuration not stated) ): 20.6

Recorded zone of inhibition at 4000 µg/mL (compound Cc1ccc(-n2cc(CN3C(=O)C4(C(C#N)=C(N)OC5=C4C(=O)CCC5)c4ccccc43)nn2)cc1 (configuration not stated) ): 13.6

Recorded zone of inhibition at 4000 µg/mL (compound CC1(C)CC(=O)C2=C(C1)OC(N)=C(C#N)C21C(=O)N(Cc2cn(-c3ccc(Br)cc3)nn2)c2ccccc21 (configuration not stated) ): 19.3

***
Recorded zone of inhibition at 4000 µg/mL (compound COc1ccc(-n2cc(CN3C(=O)C4(C(C#N)=C(N)OC5=C4C(=O)CCC5)c4ccccc43)nn2)cc1 (configuration not stated) ): 14

Recorded zone of inhibition at 4000 µg/mL (compound COc1ccc(-n2cc(CN3C(=O)C4(C(C#N)=C(N)OC5=C4C(=O)CC(C)(C)C5)c4ccccc43)nn2)cc1 (configuration not stated) ): 15.6

====

Each record here notes measured zone of inhibition at 4000 µg/mL.
system: Saccharomyces cerevisiae; experiment: Antifungal activity against Saccharomyces cerevisiae MTCC 170 assessed as growth inhibition at 4 mg/mL after 24 hrs by agar well diffusion method; type: functional; details: MTCC 170, 24 h, read-out: DIZ
The answer is to be given in mm; state only the numeric part.

Recorded zone of inhibition at 4000 µg/mL (compound CC1(C)CC(=O)C2=C(C1)OC(N)=C(C#N)C21C(=O)N(Cc2cn(-c3cccc(Cl)c3)nn2)c2ccccc21 (stereo unspecified) ): 13.6

Recorded zone of inhibition at 4000 µg/mL (compound CC1(C)CC(=O)C2=C(C1)OC(N)=C(C#N)C21C(=O)N(Cc2cn(-c3ccccc3)nn2)c2ccccc21 (stereo unspecified) ): 14.3

Recorded zone of inhibition at 4000 µg/mL (compound CC1(C)CC(=O)C2=C(C1)OC(N)=C(C#N)C21C(=O)N(Cc2cn(-c3ccc(F)c(Cl)c3)nn2)c2ccccc21 (stereo unspecified) ): 14.3

***
Recorded zone of inhibition at 4000 µg/mL (compound N#CC1=C(N)OC2=C(C(=O)CCC2)C12C(=O)N(Cc1cn(-c3ccc(Br)cc3)nn1)c1ccccc12 (stereo unspecified) ): 14.3

Recorded zone of inhibition at 4000 µg/mL (compound Cn1c2c(c(=O)n(C)c1=O)C1(C(=O)N(Cc3cn(-c4ccc([N+](=O)[O-])cc4)nn3)c3ccccc31)C(C#N)=C(N)O2 (stereo unspecified) ): 13.6

Recorded zone of inhibition at 4000 µg/mL (compound Cc1ccc(-n2cc(CN3C(=O)C4(C(C#N)=C(N)Oc5c4c(=O)n(C)c(=O)n5C)c4ccccc43)nn2)cc1 (stereo unspecified) ): 14.3
